Where these numbers come from: paper PMC5997408

- system-tested: NQO2 (Homo sapiens)
- Sequence (P16083 1-231): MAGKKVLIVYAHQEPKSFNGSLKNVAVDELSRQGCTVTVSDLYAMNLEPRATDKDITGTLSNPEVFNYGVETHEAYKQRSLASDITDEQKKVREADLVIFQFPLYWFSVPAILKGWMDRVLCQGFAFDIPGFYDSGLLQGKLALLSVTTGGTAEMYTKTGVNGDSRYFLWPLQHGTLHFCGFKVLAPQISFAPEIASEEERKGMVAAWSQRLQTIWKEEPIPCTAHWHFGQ
- assay-notes: Inhibition of recombinant NQO2, menadione as substrate with BNAH
- Format: biochemical
readout-label: Ki (µM)
Answers are plain numbers, in µM.

Identify measured Ki corresponding to Cc1cccc(Nc2ccccc2C(=O)O)c1C 66

* * *

Could you please report measured pKi for the items listed next?
- system-tested: NQO1 (Homo sapiens, UniProt P15559)
- Sequence (P15559 whole entry): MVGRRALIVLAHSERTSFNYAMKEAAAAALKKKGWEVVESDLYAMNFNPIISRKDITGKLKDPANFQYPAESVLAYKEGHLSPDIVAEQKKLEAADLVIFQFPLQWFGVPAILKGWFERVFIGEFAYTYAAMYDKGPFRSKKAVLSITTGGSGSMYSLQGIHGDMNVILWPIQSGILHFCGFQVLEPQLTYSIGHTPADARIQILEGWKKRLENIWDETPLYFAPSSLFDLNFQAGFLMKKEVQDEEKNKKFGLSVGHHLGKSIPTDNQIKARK
- assay-notes: Inhibition of recombinant NQO1, DCPIP reduction
Numbers only, as −log10 of the molar value.

Example results:
>  <compound>
O=C(O)Cc1ccccc1Nc1c(Cl)cccc1Cl [diclofenac]

>  <pKi>
4.89

$$$$
>  <compound>
Nc1c2c(nc3ccccc13)CCCC2 [tacrine]

>  <pKi>
3.71

$$$$

// moving on: another record for pKi
Identify measured pKi corresponding to Cc1cccc(Nc2ccccc2C(=O)O)c1C [mefenamic acid] 4.40

* * *

- system-tested: NQO2 (Homo sapiens)
- assay-notes: Inhibition of recombinant NQO2, DCPIP reduction with BNAH
- Format: biochemical
- details: Ki value, range over DCPIP and MTT as substrate
readout-label: Ki

Identify measured Ki corresponding to Nc1c2c(nc3ccccc13)CCCC2 3 to 15 µM

* * *

- system-tested: NQO2 (Homo sapiens)
- Sequence (P16083 1-231): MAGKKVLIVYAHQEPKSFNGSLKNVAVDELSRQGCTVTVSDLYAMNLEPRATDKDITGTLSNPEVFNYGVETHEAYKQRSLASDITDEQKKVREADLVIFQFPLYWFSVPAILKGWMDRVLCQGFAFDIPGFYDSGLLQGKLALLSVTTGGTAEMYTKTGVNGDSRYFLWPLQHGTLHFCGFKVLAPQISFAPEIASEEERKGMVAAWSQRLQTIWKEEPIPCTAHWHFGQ
- assay-notes: Inhibition of recombinant NQO2, MTT reduction with BNAH
- Format: biochemical
readout-label: Ki (µM)
Answers are plain numbers, in µM.

Identify measured Ki corresponding to Nc1c2c(nc3ccccc13)CCCC2 [tacrine] 15
